- subject_of_test: PD-1/PD-L1 PPI (Homo sapiens)
- Sequence (Q9NZQ7 19-238 limits assumed): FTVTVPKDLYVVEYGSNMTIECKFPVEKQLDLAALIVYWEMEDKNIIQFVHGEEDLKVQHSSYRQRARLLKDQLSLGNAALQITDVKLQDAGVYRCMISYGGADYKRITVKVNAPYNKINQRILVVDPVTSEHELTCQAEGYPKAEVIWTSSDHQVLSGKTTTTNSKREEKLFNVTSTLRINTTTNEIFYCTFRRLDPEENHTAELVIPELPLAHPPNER
- procedure_details: PDL1/PD1 Binding Assay
- test_conditions: PDL1-6×His 0.3 nM, PD1-Fc-Avi-Biotin 2.5 nM, Acceptor/Donor beads, Envision reader
property_name: IC50

Solved entries (count: 3):
CCOC(=O)C1CN([C@H]2CCc3cc(-c4cccc(-c5cccc(NC(=O)c6cn(C)c(=O)n(C)c6=O)c5Cl)c4Cl)nc(OC)c32)C1 (single isomer, unassigned) : ≤ 10 nM
COc1nc(-c2cccc(-c3cccc(NC(=O)c4nn(C)c(=O)n(C)c4=O)c3C)c2C)cc2c1[C@@H](N[C@@H]1CCOC[C@H]1O)CC2 (single isomer, unassigned) : ≤ 10 nM
COc1nc(-c2cccc(-c3cccc(NC(=O)c4cn(C)c(=O)n(C)c4=O)c3OC)c2Cl)cc2c1[C@@H](NC[C@@H]1CCC(=O)N1)CC2 : ≤ 10 nM

Data request: Answer with the recorded IC50 of COc1nc(-c2cccc(-c3cccc(NC(=O)c4cn(C)c(=O)n(C)c4=O)c3F)c2C)cc2c1[C@H](N[C@@H]1CCOC[C@@H]1O)CC2 (single isomer, unassigned) only.
Data returned: ≤ 10 nM

Data request: Answer with the recorded IC50 of COc1nc(-c2cccc(-c3cccc(NC(=O)c4cn(C)c(=O)n(C)c4=O)c3C)c2C)cc2c1[C@@H](N[C@@H]1COC[C@@H]1O)CC2 (single isomer, unassigned) only.
Data returned: 10 to 100 nM

Data credit: patent US12534450B2
